Source: patent US7960395B2

Molecular target: hCX3CR1 (Homo sapiens)
Construct: expressed in transfected cells; host or cells: human embryonic kidney suspension (HEKS) 293 cells stably expressing chimeric G-protein Gαqi5; membranes prepared from them
Sequence (P49238 whole entry): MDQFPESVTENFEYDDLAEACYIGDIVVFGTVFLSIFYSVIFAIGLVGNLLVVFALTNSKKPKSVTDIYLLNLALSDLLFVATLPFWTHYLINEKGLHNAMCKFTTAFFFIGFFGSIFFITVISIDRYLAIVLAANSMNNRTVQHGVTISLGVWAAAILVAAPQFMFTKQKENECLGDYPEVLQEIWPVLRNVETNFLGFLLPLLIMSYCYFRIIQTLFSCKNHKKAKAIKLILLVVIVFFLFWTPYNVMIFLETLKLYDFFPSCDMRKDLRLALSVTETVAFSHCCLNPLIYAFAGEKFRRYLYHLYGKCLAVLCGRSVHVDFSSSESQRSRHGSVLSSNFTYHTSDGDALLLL
Assay: in vitro hCX3CR1 binding assay ([125I]-fractalkine competition binding, membranes)
Conditions: final compounds
pKi: −log10 of the molar value.
TEST READOUT: pKi

Below are worked cases with known answers.
CCC[C@H](CO)Nc1nc(S[C@@H](C)c2ccc(Cl)nc2)nc2[nH]c(=O)sc12 [Example 6] = 7.67
CC(C)C[C@H](CO)Nc1nc(S[C@@H](C)c2ncccc2F)nc2[nH]c(=O)sc12 [Example 4] = 7.74

[1] CC(C)C[C@H](CO)Nc1nc(S[C@@H](C)c2ccc(F)cn2)nc2[nH]c(=O)sc12 [Example 2]
[2] CC(C)C[C@H](CO)Nc1nc(S[C@@H](C)c2ccc(Cl)cn2)nc2[nH]c(=O)sc12 [Example 1]
[3] CC(C)C[C@H](CO)Nc1nc(S[C@@H](C)c2ccncc2F)nc2[nH]c(=O)sc12 [Example 8b]
[4] CCC[C@H](CO)N(C)c1nc(S[C@@H](C)c2ccc(Cl)nc2)nc2[nH]c(=O)sc12 [Example 7]
[5] CC(C)C[C@H](CO)Nc1nc(S[C@H](C)c2ccncc2F)nc2[nH]c(=O)sc12 [Example 8a]
[Q] Kindly order the items shown according to pKi, from the highest value down. Reply: labels, ordered per the request.
[A] 3, 2, 1, 5, 4
(3: 8.82, 2: 8.24, 1: 7.70, 5: 7.01, 4: 6.36)
